Tested on: L6
EXPERIMENT DESCRIPTION: Cytotoxicity against rat L6 cells after 72 hrs by alamar blue assay
Assay type: cell-based
ASSAY SETUP: L6, 72 h
VALUE TYPE: IC50 (µg/mL)
Just the number in µg/mL, nothing appended.

Provide IC50 value for the following compound: O=C1C=CC(O)(CC(=O)OC[C@H]2O[C@@H](OC(=O)CC3(O)C=CC(=O)C=C3)[C@H](OC(=O)Cc3ccccc3)[C@@H](OC(=O)Cc3ccc(O)cc3)[C@@H]2O)C=C1 [JACAGLABROSIDE D]
84.8

Provide IC50 value for the following compound: O=C1C=CC(O)(CC(=O)OC[C@H]2O[C@@H](OC(=O)CC3(O)C=CC(=O)C=C3)[C@H](OC(=O)Cc3ccccc3)[C@@H](OC(=O)Cc3ccccc3)[C@@H]2O)C=C1 [JACAGLABROSIDE A]
8.3

Provide IC50 value for the following compound: O=C1C=CC(O)(CC(=O)OC[C@H]2O[C@@H](OC(=O)CC3(O)C=CC(=O)C=C3)[C@H](OC(=O)Cc3ccc(O)cc3)[C@@H](OC(=O)Cc3ccccc3)[C@@H]2O)C=C1 [JACAGLABROSIDE C]
87

Provide IC50 value for the following compound: COC(=O)CC1(O)C=CC(=O)C=C1 [JACARANONE]
1.06
